Just for reference, the Immune Epitope Database (IEDB) is where these values come from.

target.system: HLA-A*80:01
assay.procedure: IEDB peptide-MHC binding, purified MHC/competitive/fluorescence; filed as Kd, often an IC50 or EC50 that approximates it; bounds were set here for any values at or beyond the usual limits of such assays
measurement.conditions: source organism: Escherichia coli O139:H28 str. E24377A
parameter.measured: Kd

Qu. # input sequence: SIPFGLMSA ; wanted: its Kd
Ans. ≥ 20 µM

###

target.system: HLA-B*46:01
assay.procedure: IEDB peptide-MHC binding, purified MHC/competitive/fluorescence; filed as Kd, often an IC50 or EC50 that approximates it; bounds were set here for any values at or beyond the usual limits of such assays
measurement.conditions: source organism: Kurkino virus
parameter.measured: Kd

Qu. # input sequence: WFLYVSQQI ; wanted: its Kd
Ans. ≥ 20 µM
